Molecular target: human adenosine A2a receptor (Homo sapiens (Human), UniProt P29274)
Sequence (P29274 whole entry): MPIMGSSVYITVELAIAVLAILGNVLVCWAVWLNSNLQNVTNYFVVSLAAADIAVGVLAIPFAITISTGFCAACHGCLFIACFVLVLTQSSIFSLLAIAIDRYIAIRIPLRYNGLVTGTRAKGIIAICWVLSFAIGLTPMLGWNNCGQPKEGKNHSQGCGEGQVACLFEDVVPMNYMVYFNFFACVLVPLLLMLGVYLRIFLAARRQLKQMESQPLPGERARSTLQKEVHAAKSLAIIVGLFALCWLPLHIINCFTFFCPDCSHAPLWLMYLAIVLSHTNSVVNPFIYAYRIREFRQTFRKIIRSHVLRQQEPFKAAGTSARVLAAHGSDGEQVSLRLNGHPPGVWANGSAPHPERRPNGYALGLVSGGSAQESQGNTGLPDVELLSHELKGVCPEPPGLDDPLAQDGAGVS
pIC50: −log10 of the molar value.

molecule: Nc1nc(N[C@H](C(=O)N2CCN(c3ccc(F)cc3F)CC2)C2CC2)nc2nc(-c3ccco3)nn12
pIC50: 8.40
--
molecule: CC[C@H](Nc1nc(N)n2nc(-c3ccco3)nc2n1)C(=O)N1CCN(CC(F)(F)C(F)F)CC1
pIC50: 8.00
--
molecule: CC(C)(F)CN1CCC(C2CCN(C(=O)[C@@H]3CCN3c3nc(N)n4nc(-c5ccco5)nc4n3)CC2)CC1
pIC50: 8.22
--
molecule: CC(C)OCCN1CCN(C(=O)[C@@H]2CCCN2c2nc(N)n3nc(-c4ccco4)nc3n2)CC1
pIC50: 8.00
--
molecule: Cc1ccc(-c2nc3nc(N4CCC[C@H]4C(=O)N4CCN(CC(F)(F)C(F)(F)F)CC4)nc(N)n3n2)o1
pIC50: 8.05
--
molecule: CC(C)C[C@H](Nc1nc(N)n2nc(-c3ccco3)nc2n1)C(=O)N1CCN(CC(F)(F)F)CC1
pIC50: 8.10
--
molecule: Nc1nc(N2CCC[C@H]2C(=O)N2CC3CCC(C2)N3C(=O)Nc2ccccc2)nc2nc(-c3ccco3)nn12
pIC50: 8.30
--
molecule: Nc1nc(N2CCC[C@H]2C(=O)N2CCN(C3CCC(C(F)(F)F)CC3)CC2)nc2nc(-c3ccco3)nn12 (stereo partly drawn)
pIC50: 7.96
--
molecule: CCC(C)S(=O)(=O)N1CCN(C(=O)[C@@H]2CCCN2c2nc(N)n3nc(-c4ccco4)nc3n2)CC1 (stereo partly drawn)
pIC50: 9.00
--
molecule: Cc1ccc(-c2nc3nc(N4CCC[C@H]4C(=O)N4CCN(C5CCCCC5)CC4)nc(N)n3n2)o1
pIC50: 7.85
--
molecule: Cc1ccc(-c2nc3nc(N4CCC[C@H]4C(=O)N4CCN(c5ncccn5)CC4)nc(N)n3n2)o1
pIC50: 8.22
--
molecule: Nc1nc(N2CCC[C@H]2C(=O)N2CC3(CN(CC(F)(F)F)C3)C2)nc2nc(-c3ccco3)nn12
pIC50: 7.89
--
molecule: C[C@H](Nc1nc(N)n2nc(-c3ccco3)nc2n1)C(=O)N1C[C@@H]2C[C@H]1CN2Cc1ccc(F)cc1F
pIC50: 9.30
--
molecule: Cc1ccc(-c2nc3nc(N4CCC[C@H]4C(=O)N4CCN(c5nccs5)CC4)nc(N)n3n2)o1
pIC50: 8.15
--
molecule: CC(C)[C@H](Nc1nc(N)n2nc(-c3ccco3)nc2n1)C(=O)N1CCN(CC(C)(C)O)CC1
pIC50: 7.77
